Would you kindly list PDI for each of these compounds?
# assay remarks: Delivery vehicle size and polydispersity by dynamic light scattering
# Format: physicochemical
# test parameters: DLS in PBS; peptoid:DSPC:Cholesterol:DMG-PEG2000 weight ratio 20:1.79:7.16:1.84, mRNA
Starred links: 1 amine or outer side, 2 acyl side, 3 side chain; linkers in the order of their positions; H or OH if unused. Non-standard residues stand in square brackets, D forms with d. Residues, ends and D or L forms follow the SMILES beside them. *: point of attachment. Gly(N-(3-decanoyloxypropyl)) = CCCCCCCCCC(=O)OCCCNCC(=O)O; N(2-decanoyloxyethyl)Gly = CCCCCCCCCC(=O)OCCNCC(=O)O; Gly(N-(CH2)3O-octanoyl) = CCCCCCCC(=O)OCCCNCC(=O)O; Gly(N-3-morpholinopropyl) = O=C(O)CNCCCN1CCOCC1; N(2-ethylhexyl)Gly = CCCCC(CC)CNCC(=O)O; X1 = CCCCC(CC)CSSCCN(CC(=O)[*:2])[*:1]; N(CH(CH2OH)2)Gly = O=C(O)CNC(CO)CO; N(octyl)Gly = CCCCCCCCNCC(=O)O; NHexGly = CCCCCCNCC(=O)O; For = O=C*
Give bare numbers.

Worked cases, PDI given:
CCCCCCCCN(C=O)CC(=O)N(CCCOC(=O)CCCCCCC)CC(=O)N(CCSSCC(CC)CCCC)CC(=O)N(CCCN1CCOCC1)CC(=O)N(CCSSCC(CC)CCCC)CC(=O)N(CCCOC(=O)CCCCCCC)CC(=O)N(CCCCCCCC)CC(N)=O (stereo not drawn) [Compound 132] (For-[N(octyl)Gly][Gly(N-(CH2)3O-octanoyl)][X1][Gly(N-3-morpholinopropyl)][X1][Gly(N-(CH2)3O-octanoyl)][N(octyl)Gly]-NH2)	0.090
CCCCCCCCCC(=O)OCCN(CC(=O)N(CCOC(=O)CCCCCCCCC)CC(=O)N(CCSSCC(CC)CCCC)CC(=O)N(CCOC(=O)CCCCCCCCC)CC(=O)N(CCOC(=O)CCCCCCCCC)CC(=O)N(CCSSCC(CC)CCCC)CC(N)=O)C(=O)CNC(CO)CO (stereo not drawn) [Compound 135] (H-[N(CH(CH2OH)2)Gly][N(2-decanoyloxyethyl)Gly][N(2-decanoyloxyethyl)Gly][X1][N(2-decanoyloxyethyl)Gly][N(2-decanoyloxyethyl)Gly][X1]-NH2)	0.158

Below: the item to evaluate.
Query :: Tell me the measured PDI of CCCCCCCCCC(=O)OCCCN(CC(=O)N(CC(=O)N(CCCCCC)CC(=O)N(CCCOC(=O)CCCCCCCCC)CC(=O)N(CC(=O)N(CCCCCC)CC(N)=O)CC(CC)CCCC)CC(CC)CCCC)C(=O)CNC(CO)CO (stereo not drawn) [Compound 55] (H-[N(CH(CH2OH)2)Gly][Gly(N-(3-decanoyloxypropyl))][N(2-ethylhexyl)Gly][NHexGly][Gly(N-(3-decanoyloxypropyl))][N(2-ethylhexyl)Gly][NHexGly]-NH2) , please.
Result :: 0.139
